These data points were gathered from patent US9969715B2.

For each of the compounds below, state its % hERG inhibition in transfected HEK (n = 3) at 1 μM av.
# target.under.test: hERG channel (Homo sapiens)
# Construct: host or cells: HEK293
# Sequence (Q12809 whole entry): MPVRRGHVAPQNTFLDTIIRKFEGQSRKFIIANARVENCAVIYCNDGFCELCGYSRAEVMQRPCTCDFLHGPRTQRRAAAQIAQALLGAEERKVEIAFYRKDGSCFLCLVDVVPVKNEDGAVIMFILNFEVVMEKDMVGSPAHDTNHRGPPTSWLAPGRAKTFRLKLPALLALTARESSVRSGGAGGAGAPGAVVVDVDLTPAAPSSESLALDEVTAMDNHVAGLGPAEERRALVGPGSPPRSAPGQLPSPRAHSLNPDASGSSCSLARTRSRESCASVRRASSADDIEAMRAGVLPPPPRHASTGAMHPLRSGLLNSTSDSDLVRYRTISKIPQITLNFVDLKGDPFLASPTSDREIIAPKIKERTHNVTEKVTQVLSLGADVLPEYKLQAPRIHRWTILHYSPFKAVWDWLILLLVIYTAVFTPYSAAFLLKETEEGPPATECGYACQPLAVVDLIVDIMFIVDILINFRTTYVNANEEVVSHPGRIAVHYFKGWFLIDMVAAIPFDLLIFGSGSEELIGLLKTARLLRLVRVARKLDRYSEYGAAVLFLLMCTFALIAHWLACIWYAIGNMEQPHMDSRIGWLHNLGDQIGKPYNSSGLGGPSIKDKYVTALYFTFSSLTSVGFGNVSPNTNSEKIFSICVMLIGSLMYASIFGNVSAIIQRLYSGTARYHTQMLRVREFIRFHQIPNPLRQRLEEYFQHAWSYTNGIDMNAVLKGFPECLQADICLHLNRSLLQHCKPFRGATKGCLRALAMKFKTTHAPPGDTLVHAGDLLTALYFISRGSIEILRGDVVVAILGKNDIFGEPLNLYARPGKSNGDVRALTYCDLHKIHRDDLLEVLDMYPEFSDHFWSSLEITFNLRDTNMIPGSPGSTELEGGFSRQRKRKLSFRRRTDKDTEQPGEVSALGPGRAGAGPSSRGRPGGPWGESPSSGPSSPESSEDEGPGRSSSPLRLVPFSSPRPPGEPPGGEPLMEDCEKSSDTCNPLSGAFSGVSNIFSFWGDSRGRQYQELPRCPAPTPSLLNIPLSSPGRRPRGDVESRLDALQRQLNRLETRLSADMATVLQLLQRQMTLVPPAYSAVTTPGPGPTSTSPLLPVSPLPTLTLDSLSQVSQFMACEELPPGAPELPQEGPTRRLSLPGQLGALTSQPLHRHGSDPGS
# protocol: hERG channel inhibition (electrophysiology, hERG-transfected HEK293 cells)
# Format: cell-based
# measurement.context: 1 μM compound
Report the figure along with its unit, number first.

Request body: readout % hERG inhibition in transfected HEK (n = 3) at 1 μM av, system hERG channel (Homo sapiens), query O=C(Nc1ccncc1)c1cccc(Nc2cccc(S(=O)(=O)NCCCN3CCOCC3)c2)c1 . Return the value.
11%

Request body: readout % hERG inhibition in transfected HEK (n = 3) at 1 μM av, system hERG channel (Homo sapiens), query CCN(CC)CCCNC(=O)c1cccc(Nc2cccc(C(=O)Nc3ccncn3)c2)n1 . Return the value.
26%

Request body: readout % hERG inhibition in transfected HEK (n = 3) at 1 μM av, system hERG channel (Homo sapiens), query CCN(CC)CCCNS(=O)(=O)c1cccc(Nc2cccc(C(=O)Nc3ccncc3)c2)c1 . Return the value.
1%

Request body: readout % hERG inhibition in transfected HEK (n = 3) at 1 μM av, system hERG channel (Homo sapiens), query O=C(Nc1ccncc1)c1cccc(Nc2cccc(S(=O)(=O)NCCCN3CCCCC3)c2)c1 . Return the value.
5%

Request body: readout % hERG inhibition in transfected HEK (n = 3) at 1 μM av, system hERG channel (Homo sapiens), query CCN(CC)CCCNC(=O)c1cccc(Nc2cccc(C(=O)Nc3ccncc3)c2)n1 . Return the value.
4%

* * *

For each of the molecules below, state its MDA tox: 50% tox. at (μM) av.
# Test system: MDA-MB231-luc-D3H2LN cells
# protocol: Toxicity assay under normal cell culture conditions (MTS), MDA cells
# Format: cell-based, human
# measurement.context: MDA-MB231-luc-D3H2LN cells, MEM+10% FBS, 72 h incubation, MTS

What does the record list as MDA tox: 50% tox. at (μM) av for O=C(Nc1ccncc1)c1cccc(Nc2cccc(S(=O)(=O)NCCCN3CCCCC3)c2)c1 ?
44 µM

What does the record list as MDA tox: 50% tox. at (μM) av for CCN(CC)CCCNS(=O)(=O)c1cccc(Nc2cccc(C(=O)Nc3ccncn3)c2)c1 ?
73 µM

What does the record list as MDA tox: 50% tox. at (μM) av for CCN(CC)CCCNC(=O)c1ccc(Nc2cccc(C(=O)Nc3ccncc3)c2)cc1 ?
103 µM

What does the record list as MDA tox: 50% tox. at (μM) av for CN(C(=O)c1cccc(Nc2cccc(C(=O)NCCCN3CCCC3)c2)c1)c1ccncc1 ?
>100 µM

What does the record list as MDA tox: 50% tox. at (μM) av for O=C(NCCCN1CCCCC1)c1cccc(Nc2cccc(C(=O)Nc3ccncc3)c2)c1 ?
25 µM

What does the record list as MDA tox: 50% tox. at (μM) av for O=C(NCCCN1CCCC1)c1cccc(Nc2cc(C(=O)Nc3ccncc3)ccn2)c1 ?
≥100 µM

What does the record list as MDA tox: 50% tox. at (μM) av for O=C(Nc1ccncc1)c1ccc(Nc2cccc(S(=O)(=O)NCCN3CCCC3)c2)cc1 ?
78 µM

What does the record list as MDA tox: 50% tox. at (μM) av for CN(C(=O)c1cccc(Nc2cccc(S(=O)(=O)NCCCN3CCOCC3)c2)c1)c1ccncc1 ?
>100 µM

What does the record list as MDA tox: 50% tox. at (μM) av for O=C(Nc1ccncc1)c1cccc(Nc2cccc(S(=O)(=O)NCCCN3CCOCC3)c2)c1 ?
60 µM

What does the record list as MDA tox: 50% tox. at (μM) av for CCN(CC)CCCNC(=O)c1ccnc(Nc2cccc(C(=O)N(C)c3ccncc3)c2)c1 ?
>>100 μM

What does the record list as MDA tox: 50% tox. at (μM) av for CCN(CC)CCCNS(=O)(=O)c1cccc(Nc2cccc(C(=O)N(C)c3ccncc3)c2)c1 ?
>100 µM

What does the record list as MDA tox: 50% tox. at (μM) av for CCN(CC)CCCNC(=O)c1cccc(Nc2cccc(C(=O)Nc3ccncc3)c2)n1 ?
59 µM

What does the record list as MDA tox: 50% tox. at (μM) av for O=C(NCCCN1CCCC1)c1cccc(Nc2cccc(C(=O)Nc3ccncn3)c2)c1 ?
35 µM

What does the record list as MDA tox: 50% tox. at (μM) av for CN1CCN(CCCNC(=O)c2ccnc(Nc3cccc(C(=O)Nc4ccncc4)c3)c2)CC1 ?
98 µM

What does the record list as MDA tox: 50% tox. at (μM) av for O=C(NCCCN1CCCC1)c1cccc(Nc2cccc(/C=C/c3ccncc3)c2)c1 [Compound 585, reference compound] ?
10 µM

What does the record list as MDA tox: 50% tox. at (μM) av for CCN(CC)CCCNC(=O)c1cccc(Nc2cccc(C(=O)Nc3ccccn3)c2)c1 ?
44 µM

What does the record list as MDA tox: 50% tox. at (μM) av for CCN(CC)CCCNC(=O)c1cccc(Nc2ccc(C(=O)Nc3ccncc3)cc2)n1 ?
>>100 μM
